Cited source: PubChem BioAssay

# assay method text: calcein-AM signal in unstimulated myeloma cells – cell-based, calcein-AM fluorescence, 48 h, PK04 Diversity Set, profiling panel (AID 1166);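 further: cells grown under basal conditions without added stimulus; test concentration not given here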
# details: RPMI8226 myeloma viability, higher = more signal
Please respond with reported z-score for every item in the list.
Would you mind answering with just the numeric figure?

query: Please list z-score recorded for the compound CCOC(=O)C[C@H]1[C@H](OC(=O)c2ccc(C(=O)c3ccccc3)cc2)[C@@H](NC(=O)c2ccc(-c3ccccc3)cc2)c2cc(OCCCO)ccc2N1C(=O)Cc1ccc(OC)cc1
result: -0.205

query: Please list z-score recorded for the compound CCOC(=O)C[C@H]1[C@H](OC(=O)c2ccccc2-c2ccccc2)[C@@H](NC(=O)c2ccc3ccccc3c2)c2cc(OCCCO)ccc2N1C(=O)c1ccccc1
result: -0.604

query: Please list z-score recorded for the compound CCOC(=O)C=Cc1cccc(C)c1O
result: -0.731

query: Please list z-score recorded for the compound O=C1CS(=O)(=O)C(c2cccc([N+](=O)[O-])c2)N1c1ccccc1 (centres undefined)
result: 1.22

---

# assay method text: growth effects on S. cerevisiae YJM789 – YJM789 clinical isolate, OD600, 24 h, basal, primary screen (AID 1089);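 further: growth of clinical yeast isolate S. cerevisiae YJM 789 seeded 1000 cells per well; test concentration not given here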
# details: higher = more signal, called active from +8 up or from −8 down
quantity: z-score
Would you mind answering with just the numeric figure?

query: Please list z-score recorded for the molecule N[C@@H](Cc1ccccc1)C(=O)NCc1cn(Cc2ccccc2)nn1
result: 0.246

query: Please list z-score recorded for the molecule CC(C)N1CC=CC23O[C@@H]4C=CCCOC(=O)C4[C@H]2C(=O)N(CCCO)[C@@H]3C1=O (stereo not given in full)
result: -0.198

query: Please list z-score recorded for the molecule Cc1ccccc1C(O)C1C=CC2C(=O)NC(=O)C2N1Nc1ccccn1 (stereo not given)
result: 0.833

query: Please list z-score recorded for the molecule CC(C)c1ccc(NN2C(C(O)c3ccc(F)cc3)C=CC3C(=O)N(c4ccccc4)C(=O)C32)cc1 (stereo not given)
result: 1.22

query: Please list z-score recorded for the molecule CCCNC(=O)[C@@]1(C)c2ccccc2C(=O)N(c2ccc(C)cn2)[C@H]1c1ccc(CO)cc1
result: -0.788

---

# assay method text: JC-1 mitochondrial potential readout, lung cancer cells – cell-based, A549, JC-1 fluorescence, basal, 24 h, 100 nL, profiling panel (AID 1138);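 further: A549 lung adenocarcinoma cells under basal conditions with no added stimulus; test concentration not given here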
# details: higher = more signal
Please respond with reported z-score for every item in the list.
Would you mind answering with just the numeric figure?

query: Please list z-score recorded for the molecule CC1CC/C=C\[C@H]2OC34C=CCN(Cc5ccccc5)C(=O)[C@H]3N(C(CO)C(C)C)C(=O)[C@@H]4C2C(=O)O1 (some centres undefined)
result: 1.32

query: Please list z-score recorded for the molecule C=CC[C@@]1(C(=O)NCCCOC)N=C(c2ccc(OCCCO)cc2)O[C@@H]1c1ccccc1
result: 0.565

query: Please list z-score recorded for the molecule C[N+](C)(C)CCCCCCNC(=O)[C@@H]1C[C@@H]2C(=O)N3CCC[C@H]3C(=O)N2[C@@H]1c1ccc(O)cc1
result: -1.19

query: Please list z-score recorded for the molecule CCOC(=O)C[C@H]1[C@H](OC(=O)c2cc3ccccc3oc2=O)[C@@H](NC(=O)c2ccc3ccccc3n2)c2cc(OCCCO)ccc2N1C(=O)Cc1ccc(OC)cc1
result: 0.57

---

# assay method text: compound effects on multiple myeloma cell viability – MM1S, calcein-AM fluorescence, 48 h, basal, profiling panel (AID 1165);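 further: viability of MM1S multiple myeloma cells under basal unstimulated conditions; test concentration not given here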
# details: higher = more signal
Please respond with reported z-score for every item in the list.
Would you mind answering with just the numeric figure?

query: Please list z-score recorded for the compound CCCC1(C(=O)OC)C=C2C(=C(C)C(=O)C2C)CN1 (stereo unspecified)
result: -0.44

query: Please list z-score recorded for the compound CC(C)NC(=O)[C@@]1(c2ccc([N+](=O)[O-])cc2)CC(=O)N(C2CCCCC2)[C@@H]1c1ccc(CO)cc1
result: -0.0629

query: Please list z-score recorded for the compound COC(=O)[C@@]1(Cc2ccc(F)cc2)[C@H]2c3cc(C(=O)N(C)C)n(Cc4ccc(OC(F)(F)F)cc4)c3C[C@H]2CN1C(=O)c1ccccc1
result: -0.225

query: Please list z-score recorded for the compound COC(=O)[C@@]1(Cc2ccc(OC)cc2)[C@H]2c3cc(C(=O)N4CCCC4)n(CCc4c[nH]c5ccc(OC)cc45)c3C[C@H]2CN1C(=O)c1ccccc1
result: -1.52

query: Please list z-score recorded for the compound CC(C)(C)OC(=O)COc1cccc(C(=O)CCN2CCOCC2)c1
result: -3.27

query: Please list z-score recorded for the compound O=C1O[C@@H](c2ccccc2)[C@@H](c2ccccc2)N2[C@@H](c3ccc(O)cc3)[C@]3(C(=O)Nc4ccc(C#CCCO)cc43)[C@@H](C(=O)N3CCN(c4ncccn4)CC3)[C@H]12
result: 0.441

query: Please list z-score recorded for the compound Cc1ccc(F)cc1S(=O)(=O)N[C@@H]1CCN(Cc2ccc(Br)cc2)C1
result: -1.24

query: Please list z-score recorded for the compound CCC#CCN(Cc1ccccc1Br)[C@H](/C=C/C1CC1)[C@@H](O)Cc1ccccc1
result: -2.23

query: Please list z-score recorded for the compound CCCCC(CC)C(O)C1C=CC2C(=O)N(C)C(=O)C2N1Nc1ccccc1 (stereo unspecified)
result: -0.0591

query: Please list z-score recorded for the compound COc1cc2c(cc1O)C(c1ccc(CN3CCCC3)cc1)N(Cc1cc3c(cc1Br)OCO3)CC2 (stereo unspecified)
result: -3.17

query: Please list z-score recorded for the compound CC(CO)N1C(=O)[C@@H]2[C@H]3C(=O)OCC=C[C@H]3OC23C=CCN(Cn2nnc4ccccc42)C(=O)[C@@H]13 (stereo partly specified)
result: 0.07

query: Please list z-score recorded for the compound CO[C@H]1O[C@H](CO)[C@@H](OC(=O)Nc2ccccc2)[C@H](OC(=O)c2cc3ccccc3[nH]2)[C@H]1OC(=O)c1cc2ccccc2[nH]1
result: -0.294

query: Please list z-score recorded for the compound NCCCCCCNC(=O)[C@@H]1C[C@@H]2C(=O)N[C@@H](CCCCN)C(=O)N2[C@@H]1c1ccc(O)cc1
result: -1.25

query: Please list z-score recorded for the compound CCOC(=O)C[C@H]1[C@H](OC(=O)Cc2ccc3c(c2)OCO3)[C@@H](NC(=O)c2ccc3ccccc3n2)c2cc(OCCCO)ccc2N1C(=O)c1ccccc1
result: 0.26

query: Please list z-score recorded for the compound CC1CC/C=C\[C@H]2OC34C=CCN(C(C)(C)C)C(=O)[C@H]3N(CCCCCO)C(=O)[C@@H]4C2C(=O)O1 (stereo partly specified)
result: 0.719

query: Please list z-score recorded for the compound COc1ccc([Si](C)(C)[C@@H]2[C@@H](CC(=O)N3CCC[C@H]3CO)O[C@]3(C(=O)N(Cc4cccc(N5C(=O)COc6ccccc65)c4)c4ccccc43)[C@H]2C)cc1
result: -2.96

query: Please list z-score recorded for the compound COC(=O)[C@@]1(Cc2ccc(OC)cc2)[C@H]2c3cc(C(=O)N4CCCC4)n(CCO)c3C[C@H]2CN1C(=O)c1ccccc1
result: -1.25

query: Please list z-score recorded for the compound CN(C)c1ccc(C(O)C2C=CC3C(=O)NC(=O)C3N2Nc2ccccn2)cc1 (stereo unspecified)
result: -0.286

query: Please list z-score recorded for the compound CCOC(=O)C=Cc1cccc(C)c1O
result: -0.536

query: Please list z-score recorded for the compound CN(C)C(=O)[C@@]1(Cc2ccccc2)N=C(c2ccc(OCCCO)cc2)O[C@H]1c1ccccc1
result: -0.918

query: Please list z-score recorded for the compound CS(=O)(=O)CCOC(=O)C1=CC(c2ccc(CO)cc2)=CC(C2CC2)N(Cc2sc3ccccc3c2Cl)C=C1C(=O)OCCS(C)(=O)=O (stereo unspecified)
result: -3.29

query: Please list z-score recorded for the compound O=C1NC(=O)C2C1C=CC(C(O)c1ccco1)N2Nc1ccc(Cl)cc1Cl (stereo unspecified)
result: -1.57

query: Please list z-score recorded for the compound Cc1ccc(NN2C(C(O)c3c(F)cccc3Cl)C=CC3C(=O)N(C4CCCCC4)C(=O)C32)cc1 (stereo unspecified)
result: 0.949

query: Please list z-score recorded for the compound CO[C@H]1O[C@H](CO)[C@@H](OC(=O)CCc2ccccc2)[C@@H]2OC(=O)[C@@H](Cc3ccccc3)C/C=C/C[C@H](Cc3ccccc3)C(=O)O[C@@H]12
result: -0.753

query: Please list z-score recorded for the compound C=C(/C(=C/C[C@H](OC(=O)c1ccncc1)c1ccc(CO)o1)c1cnc2ccccc2c1)C(C)C
result: -2.88

query: Please list z-score recorded for the compound O=C1[C@H]2C=C(I)[C@H](C[C@@H]2OCCOCCO)[C@@]12CO2
result: -0.582

query: Please list z-score recorded for the compound COC(=O)[C@@]1(Cc2ccc(OC)cc2)[C@H]2c3cc(C(=O)N(C)C)n(Cc4ccc(C)o4)c3C[C@H]2CN1C(=O)c1ccccc1
result: -1.92

query: Please list z-score recorded for the compound CC(C)N1C(=O)C[C@@](C(=O)NC2CC2)(c2ccc([N+](=O)[O-])cc2)[C@H]1c1ccc(CO)cc1
result: 0.941

query: Please list z-score recorded for the compound CC(C)[Si]1(C(C)C)OCc2cc(-c3ccc(-c4ccc(Cl)c(Cl)c4)o3)nc(-c3ccccc3)c21
result: -1.77

query: Please list z-score recorded for the compound COc1ccc([Si](C)(C)[C@@H]2[C@@H](CC(=O)N(CCO)Cc3ccccc3)O[C@]3(C(=O)N(Cc4cccc(N5CCCCC5=O)c4)c4ccccc43)[C@H]2C)cc1
result: -1.43

query: Please list z-score recorded for the compound CC1=C2[C@@H](CCc3ccccc3)OB(O)C[C@@H]2[C@@H]2C(=O)N(Cc3ccccc3)C(=O)[C@@H]2C1
result: -2.9
